PROTOCOL: qHTS Assay for Inhibitors of Influenza NS1 Protein Function: Mammalian Cell Viability
MEASUREMENT_SETUP: NS1 counter-screen; at 100 µM (top of the series)
Results filed as inconclusive are left out.
1 if viability is below 90%. -1 if not; exact matches included in -1.

INPUT_SMILES: COc1cc(-c2c(C#N)c(N)nc3c2c(C)nn3-c2ccc(C)cc2)ccc1O
CATEGORY: -1
//
INPUT_SMILES: COc1cc(-c2ccnc3c2c(C)nn3-c2cccc(C(F)(F)F)c2)ccc1O
CATEGORY: -1

QUERY: Hello, I'm reviewing records and need to know if viability of COc1ccc(-c2c(C#N)c(N)nc3c2c(C)nn3-c2ccc(Cl)cc2)cc1OC is below 90%. Could you check?
RESULT: -1

QUERY: Hello, I'm reviewing records and need to know if viability of COc1cc(-c2ccnc3c2c(C)nn3-c2ccc(F)cc2)ccc1O is below 90%. Could you check?
RESULT: 1

QUERY: Hello, I'm reviewing records and need to know if viability of COc1ccc(-n2nc(C)c3c(-c4ccc(O)c(OC)c4)ccnc32)cc1 is below 90%. Could you check?
RESULT: -1

QUERY: Hello, I'm reviewing records and need to know if viability of Cc1nn(-c2ccc(Cl)cc2)c2nc(N)c(C#N)c(-c3ccc(O)c(O)c3)c12 is below 90%. Could you check?
RESULT: 1

QUERY: Hello, I'm reviewing records and need to know if viability of COc1ccc(-c2ccnc3c2c(C)nn3-c2ccc(F)cc2)cc1OC is below 90%. Could you check?
RESULT: -1

QUERY: Hello, I'm reviewing records and need to know if viability of COc1cc(-c2c(C#N)c(=O)[nH]c3c2c(C)nn3-c2ccccc2)cc(OC)c1OC is below 90%. Could you check?
RESULT: -1

QUERY: Hello, I'm reviewing records and need to know if viability of COc1ccc(-c2c3c(C)nn(-c4ccccc4)c3nc3[nH]c(=O)[nH]c(=O)c23)cc1OC is below 90%. Could you check?
RESULT: 1

QUERY: Hello, I'm reviewing records and need to know if viability of CCOC(=O)c1cnc2c(c(C)nn2-c2ccc(F)cc2)c1-c1ccc(O)c(OC)c1 is below 90%. Could you check?
RESULT: 1

---

PROTOCOL: qHTS Assay for Inhibitors of Influenza NS1 Protein Function: Mammalian Cell Viability
MEASUREMENT_SETUP: NS1 counter-screen; at 100 µM (top of the series)
Results filed as inconclusive are left out.
PROPERTY_LABEL: viability (%)
Numeric only. Scale: %

Solved entries (count: 8):
INPUT_SMILES: COc1cc(-c2c(C#N)c(N)nc3c2c(C)nn3-c2ccc(C)c(C)c2)cc(OC)c1OC
U: %
viability: 90.8

INPUT_SMILES: COc1cc(-c2c(C#N)c(N)nc3c2c(C)nn3-c2ccc(F)cc2)cc(OC)c1OC
U: %
viability: 90.7

INPUT_SMILES: COc1cc(-c2c(C#N)c(=O)[nH]c3c2c(C)nn3-c2ccccc2)ccc1O
U: %
viability: 85.2

INPUT_SMILES: COc1cc(-c2c(C#N)c(N)nc3c2c(C)nn3-c2ccc(Cl)cc2)cc(OC)c1OC
U: %
viability: 92.1

INPUT_SMILES: Cc1nn(-c2ccccc2)c2nc(N)c(C#N)c(-c3ccc(O)c(O)c3)c12
U: %
viability: 105

INPUT_SMILES: COc1ccc(-c2c3c(C)nn(-c4ccccc4)c3nc3[nH]c(=O)[nH]c(=O)c23)cc1O
U: %
viability: 102

INPUT_SMILES: COc1cccc(-n2nc(C)c3c(-c4ccc(O)c(OC)c4)ccnc32)c1
U: %
viability: 124

INPUT_SMILES: COc1cccc(-c2ccnc3c2c(C)nn3-c2ccc(F)cc2)c1
U: %
viability: 4.7

QUERY: # lookup: viability of COc1cc(-c2c(C#N)c(N)nc3c2c(C)nn3-c2ccc(C)cc2)cc(OC)c1OC
RESULT: 99.9

QUERY: # lookup: viability of COc1ccc(-c2c(C#N)c(N)nc3c2c(C)nn3-c2ccc(F)cc2)cc1OC
RESULT: 101

---

PROTOCOL: qHTS Assay for Inhibitors of Influenza NS1 Protein Function: Mammalian Cell Viability
MEASUREMENT_SETUP: NS1 counter-screen; at 100 µM (top of the series)
Inconclusive results are not listed.
PROPERTY_LABEL: viability (%)
Numeric only. Scale: %

Solved entries (count: 2):
INPUT_SMILES: COc1cc(-c2c3c(C)nn(-c4ccccc4)c3nc3[nH]c(=O)[nH]c(=O)c23)ccc1O
viability (%): 101
--
INPUT_SMILES: COc1ccc(-c2c(C#N)c(N)nc3c2c(C)nn3-c2ccccc2)cc1OC
viability (%): 101

QUERY: # lookup: viability of COc1cc(-c2c(C#N)c(N)nc3c2c(C)nn3-c2ccc(F)cc2)ccc1O
RESULT: 88
